experimental-target: FL-AR^F876L (Homo sapiens, UniProt P10275, F877L)
Sequence (P10275 whole entry F877L): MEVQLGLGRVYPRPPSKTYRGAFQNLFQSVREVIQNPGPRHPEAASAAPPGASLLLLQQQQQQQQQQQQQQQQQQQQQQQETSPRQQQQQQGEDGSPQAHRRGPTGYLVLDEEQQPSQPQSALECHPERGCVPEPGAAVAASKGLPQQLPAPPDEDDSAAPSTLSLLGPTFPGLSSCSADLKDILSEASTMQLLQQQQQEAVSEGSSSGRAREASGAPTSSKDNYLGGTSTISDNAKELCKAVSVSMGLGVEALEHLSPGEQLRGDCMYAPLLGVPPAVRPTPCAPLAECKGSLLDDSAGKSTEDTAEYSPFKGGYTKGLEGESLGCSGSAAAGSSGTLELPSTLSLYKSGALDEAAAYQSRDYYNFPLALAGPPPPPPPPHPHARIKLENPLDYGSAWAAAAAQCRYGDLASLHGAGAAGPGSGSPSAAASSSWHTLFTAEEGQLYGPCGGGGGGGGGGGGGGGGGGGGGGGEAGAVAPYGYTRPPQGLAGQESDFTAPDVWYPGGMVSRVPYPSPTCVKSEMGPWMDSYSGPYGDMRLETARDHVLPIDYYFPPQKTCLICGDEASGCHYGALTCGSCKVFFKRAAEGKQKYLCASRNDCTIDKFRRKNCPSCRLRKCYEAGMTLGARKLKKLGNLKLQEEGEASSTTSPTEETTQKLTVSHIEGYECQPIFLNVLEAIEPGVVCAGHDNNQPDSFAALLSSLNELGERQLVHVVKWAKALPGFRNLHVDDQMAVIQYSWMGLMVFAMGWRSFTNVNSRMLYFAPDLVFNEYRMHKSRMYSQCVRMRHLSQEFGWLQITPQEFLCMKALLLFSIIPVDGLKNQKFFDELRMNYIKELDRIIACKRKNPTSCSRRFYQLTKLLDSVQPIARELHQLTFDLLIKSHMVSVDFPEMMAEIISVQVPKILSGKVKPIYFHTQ
assay-overview: Dual-luciferase reporter assay for FL-AR F876L in PC3 cells
assay-endpoint: pIC50
Numbers only, as −log10 of the molar value.

State the recorded pIC50 for this entry: CC(=O)Cc1nsc(NC(=O)c2cc(-c3cccc(C(F)(F)F)c3)oc2C)n1 6.80

---

Test system: secreted PSA from LNCaP cells
assay-overview: Secreted prostate-specific antigen (PSA) assay
Assay type: cell-based
condition-notes: Homo sapiens, read-out: IC50, PSA levels secreted in the cellular media
assay-endpoint: IC50 (nM)
One number for each entry, in nM.

>>> value_measured("CNC(=O)c1ccc(N2C(=S)N(c3ccc(C#N)c(C(F)(F)F)c3)C(=O)C2(C)C)cc1F [Enz, enzalutamide, reference compound]")
180

// below: IC50 requested for another molecule
State the recorded IC50 for this entry: CC(=O)Cc1nsc(NC(=O)c2cc(-c3cccc(C(F)(F)F)c3)oc2C)n1 [Compound M17-B15] 350

Hello, the source for this data is paper PMC10141604, in case you need it.
